System: xbp1 upstream promoter
Assay: Transcriptional activation of pGL3-pxbp1 (dual luciferase reporter gene) in IEC-6 cells
Type: cell-based
Conditions: Rattus norvegicus, IEC-6 cells transfected with pGL3-pxbp1, 36 h-48 h, read-out: EC50 of transcriptional activation effect on xbp1 gene
Method: (1) Method: IEC-6 cells in the period of vigorous growth were seed in 48 well plate at a density of 5×10^4 to disperse the cells uniform and then it was placed in a humidifying cell incubator filled with 5% CO2 at 37° C. to incubate. Plasmid transfection (0.6 μg/well) was carried out when the cells confluencing up to 70%-80%. After 4 h, each compound of 1×10^−5 mol/L was added into these wells (n=3), respectively, and incubated for another 36 h-48 h together with existing transfected cells. […]
Property name: EC50 (nM)

Request: I would be grateful if you could share the reported EC50 for C1=C2c3cc4c(cc3CCN2Cc2c1ccc1c2OCO1)OCO4 [Compound 1, dihydrocoptisine] .
Result: 2.29

P: C1=C2c3cc4c(cc3CCN2Cc2cc3c(cc21)OCO3)OCO4 [Compound 2, dihydropseudocoptisine]
Q: C=C(C(=O)CC)c1c2c(OC)c(OC)ccc2c(C)c2[n+]1CCc1cc3c(cc1-2)OCO3
R: CC(=O)CC1c2c(ccc3c2OCO3)C=C2c3cc4c(cc3CCN21)OCO4 (racemic) [Compound 7, (±)-8-acetonyldihydrocoptisine]
Request: Please give the order of these compounds when sorted by EC50, largest value leading. // rank by listing labels in the order requested
Result: R, Q, P
